Where do the numbers come from? From PubChem BioAssay (NCI).

System: MDA-MB-435 melanoma
Measurement notes: NCI-60 one-dose screen, 48 h
Experimental setup: 10 µM unless noted
The panel holds about 83,000 compounds, 20% with a hit somewhere; the sample as a whole holds those more often. The source made the active and inactive calls. How the source made its calls: active means growth percent below 10; inactive means the rest.
Give one outcome, nothing more. List: label 1 = active, label 0 = inactive

What classification did `COc1ccc(S(=O)(=O)NCCNc2nccc(-c3c(-c4cccc([N+](=O)[O-])c4)nc4sccn34)n2)cc1` end up with in this test?
label 0

I would be grateful if you could indicate the recorded call for `O=C(/C=C/c1cc2ccccc2[nH]c1=O)/C=C/c1cc2ccccc2[nH]c1=O` .
label 1

Which result was noted for this molecule in the test: `COc1ccc(CNc2nccnn2)cc1`
label 0

Record request — test call for `S=c1[nH]nc(CSc2ncnc3c2c(-c2ccccc2)cn3-c2ccc(Cl)cc2)o1`
label 0

Outcome? `O=C1Nc2ccccc2/C1=C/C(=N/c1nnc(-c2ccccc2)s1)c1ccccc1`
label 0
